Test system: Staphylococcus aureus
Test: Antimicrobial activity against Staphylococcus aureus
Assay type: functional
Measured MIC by item
Reply numerically in µg/mL, unit not repeated.

| mol.smiles | experimental.system | assay.value |
| --- | --- | --- |
| O=C(Nc1ccc(Cl)c(C(F)(F)F)c1)C(CCl)C(=O)Nc1ccc(Cl)c(C(F)(F)F)c1 | Staphylococcus aureus | 0.5 |
| N#Cc1ccc(Oc2cccc(NC(=O)Nc3ccc(Cl)c(C(F)(F)F)c3)c2)c(F)c1 | Staphylococcus aureus | 0.5 |
| O=C(Nc1ccc2c(c1)OC(F)(F)O2)Nc1ccc(Cl)c(C(F)(F)F)c1 | Staphylococcus aureus | 0.3 |
| N#Cc1ccc(Oc2ccc3cccc(NC(=O)Nc4ccc(Cl)c(C(F)(F)F)c4)c3c2)cc1 | Staphylococcus aureus | 1 |

**Query** // fetch MIC given entry O=C(Nc1ccc(Oc2ccc(=O)[nH]n2)cc1)Nc1ccc(Cl)c(Cl)c1
**Result** 0.5

**Query** // fetch MIC given entry O=C(Nc1ccc(Cl)c(C(F)(F)F)c1)Nc1ccc(Cl)c(C(F)(F)F)c1
**Result** 0.25

**Query** // fetch MIC given entry O=C(NC(=S)Nc1ccc(Cl)cn1)c1ccc(N2CCCCC2)c([N+](=O)[O-])c1
**Result** 0.06

**Query** // fetch MIC given entry N#Cc1ccc(Oc2cccc(NC(=O)Nc3ccc(Cl)c(C(F)(F)F)c3)c2)cc1Cl
**Result** 0.5
